- System: Plasmodium berghei
- experiment-notes: Antimalarial activity against trophozoite-induced Plasmodium berghei infected in mouse assessed as change in mean survival time at 5 mg/kg, sc single dose after 72 hrs of infection
- Type: functional
- protocol-conditions: route subcutaneous
assay-endpoint: MST (days)
Give just the numeric value; days need not be written.

Entry CCc1nc(N)nc(N)c1-c1ccc(Cl)cc1 [PYRIMETHAMINE] has what MST?
5.3

Give its MST value. Item: Nc1nc(N)c2cc([S+]([O-])c3ccc(Cl)cc3)ccc2n1 (stereo unspecified)
4.8

Consider the compound `Nc1nc(N)c2cc(S(=O)(=O)c3ccc4ccccc4c3)ccc2n1` and give its measured MST.
15.6

Please look up its MST: `Nc1nc(N)c2cc(S(=O)(=O)c3ccc(Cl)c(Cl)c3)ccc2n1`
5.9

Item under review: `Nc1nc(N)c2cc(S(=O)(=O)c3cccc(-c4ccccc4)c3)ccc2n1` . Reported MST?
13.6

Tell me the measured MST of Nc1nc(N)c2cc([S+]([O-])c3ccc(Cl)c(Cl)c3)ccc2n1 (stereo unspecified) , please.
7.9

====

- Test system: Plasmodium berghei
- experiment-notes: Antimalarial activity against trophozoite-induced Plasmodium berghei infected in mouse assessed as change in mean survival time at 10 mg/kg, sc single dose after 72 hrs of infection
- Assay type: functional
- protocol-conditions: route subcutaneous
assay-endpoint: MST (days)
Answer format: numeric, days implied, no suffix.

Give the measured MST of Nc1nc(N)c2cc([S+]([O-])c3ccccc3-c3ccccc3)ccc2n1 (configuration not stated) .
0.3

What value of MST has been recorded for this entry: `Nc1nc(N)c2cc(S(=O)(=O)c3ccc(F)cc3)ccc2n1`
12.9

I would be grateful if you could share the reported MST for `Nc1nc(N)c2cc(S(=O)(=O)c3cc(Cl)cc(Cl)c3)ccc2n1` .
6.9

# query: MST of entry `Nc1nc(N)c2cc(S(=O)(=O)c3ccc(Br)cc3)ccc2n1`
13.1

Any idea what MST was measured for Nc1nc(N)c2cc([S+]([O-])c3ccc(Br)cc3)ccc2n1 (configuration not stated) ?
10.1

So what's the measured MST for this one? `Nc1nc(N)c2cc(S(=O)(=O)c3cccc(C(F)(F)F)c3)ccc2n1`
11.6

Tell me the measured MST of Nc1nc(N)c2cc([S+]([O-])c3ccc(F)cc3)ccc2n1 (configuration not stated) , please.
5.5

Suppose we examine the molecule CC1(C)N=C(N)N=C(N)N1c1ccc(Cl)cc1.Cl [CHLORCYCLOGUANIL HYDROCHLORIDE] ; what MST value has been reported?
4.9

What does the data say about its MST? Entry: COc1ccc([S+]([O-])c2ccc3nc(N)nc(N)c3c2)cc1 (configuration not stated)
0.7

May I ask what MST has been recorded for `Nc1nc(N)c2c(Cl)c(S(=O)(=O)c3ccc(F)cc3)ccc2n1` ?
9.3

// lookup MST for `CCc1nc(N)nc(N)c1-c1ccc(Cl)cc1`
6.1

Item under review: Nc1nc(N)c2cc([S+]([O-])c3cccc(C(F)(F)F)c3)ccc2n1 (configuration not stated) . Reported MST?
12.7

====

- Test system: Escherichia coli
- experiment-notes: Antibacterial activity against Escherichia coli Vogel assessed as growth inhibition
- Assay type: functional
Field: MIC. Provide a value for each of the compounds that follow.

MIC for `Nc1nc(N)c2cc(S(=O)(=O)c3ccc4ccccc4c3)ccc2n1` ?
> 25 µg/mL

Please report the recorded MIC for Nc1nc(N)c2cc([S+]([O-])c3cccc4ccccc34)ccc2n1 (stereo unspecified) .
> 25 µg/mL

Would you kindly share the measured MIC for Nc1nc(N)c2c(Cl)c([S+]([O-])c3ccc4ccccc4c3)ccc2n1 (stereo unspecified) ?
> 25 µg/mL

What does the record list as MIC for Nc1nc(N)c2cc([S+]([O-])c3cccc(C(F)(F)F)c3)ccc2n1 (stereo unspecified) ?
> 25 µg/mL

Fill blank: measured MIC of the compound COc1cc(Cc2cnc(N)nc2N)cc(OC)c1OC [TRIMETHOPRIM] is ____.
< 0.25 µg/mL

Look up MIC for this compound: `Nc1nc(N)c2cc(S(=O)(=O)c3cccc(-c4ccccc4)c3)ccc2n1`
> 25 µg/mL

====

Exercise: state measured MIC for each of the compounds provided.
- Test system: Escherichia coli
- experiment-notes: Antibacterial activity against Escherichia coli Vogel assessed as growth inhibition
- Format: functional

Item under review: `Nc1nc(N)c2cc(S(=O)(=O)c3ccc(Cl)c(Cl)c3)ccc2n1` . Reported MIC?
2.5 µg/mL

For the compound shown here, Nc1nc(N)c2cc([S+]([O-])c3ccc(Cl)cc3)ccc2n1 (centres undefined) , give the reported MIC.
1.5 µg/mL

Returns the measured MIC for the input compound. Input: `Nc1nc(N)c2c(Cl)c(S(=O)(=O)c3cccc(C(F)(F)F)c3)ccc2n1`
> 25 µg/mL

Need MIC, item `Nc1nc(N)c2cc(S(=O)(=O)c3ccccc3-c3ccccc3)ccc2n1`
> 25 µg/mL

Would you mind telling me what MIC value was observed for `Nc1nc(N)c2cc(S(=O)(=O)c3cc(Cl)cc(Cl)c3)ccc2n1` ?
> 25 µg/mL

For Nc1nc(N)c2c(Cl)c([S+]([O-])c3ccccc3Cl)ccc2n1 (centres undefined) , what is its reported MIC?
> 25 µg/mL

# get_value(readout='MIC', item= Nc1nc(N)c2c(Cl)c([S+]([O-])c3ccc(F)cc3)ccc2n1 (centres undefined) )
< 0.25 µg/mL

Form field: reported MIC of Nc1nc(N)c2cc([S+]([O-])c3ccc4ccccc4c3)ccc2n1 (centres undefined)
< 0.25 µg/mL

# MIC lookup, item Nc1nc(N)c2cc([S+]([O-])c3ccccc3-c3ccccc3)ccc2n1 (centres undefined)
> 25 µg/mL

Would you kindly share the measured MIC for `Nc1nc(N)c2cc(S(=O)(=O)c3cccc(C(F)(F)F)c3)ccc2n1` ?
> 25 µg/mL

# get_value(readout='MIC', item= `Nc1nc(N)c2cc(S(=O)(=O)c3cccc4ccccc34)ccc2n1` )
> 25 µg/mL

Need MIC of Nc1nc(N)c2cc([S+]([O-])c3c(F)c(F)cc(F)c3F)ccc2n1 (centres undefined) , thanks.
> 25 µg/mL

What does the record list as MIC for Nc1nc(N)c2cc([S+]([O-])c3cccc(-c4ccccc4)c3)ccc2n1 (centres undefined) ?
> 25 µg/mL

Which measured MIC value corresponds to `COc1ccc(S(=O)(=O)c2ccc3nc(N)nc(N)c3c2)cc1` ?
2.5 µg/mL

====

Please respond with reported MIC for every item in the list.
- System: Staphylococcus aureus
- experiment-notes: Antibacterial activity against Staphylococcus aureus UC-76 assessed as growth inhibition
- Type: functional

Param item = Nc1nc(N)c2cc([S+]([O-])c3cccc(-c4ccccc4)c3)ccc2n1 (centres undefined) ; retrieve measured MIC.
< 0.25 µg/mL

Request the reported MIC associated with `Nc1nc(N)c2c(Cl)c(S(=O)(=O)c3cccc(C(F)(F)F)c3)ccc2n1`
> 25 µg/mL

// returns reported MIC for input Nc1nc(N)c2cc([S+]([O-])c3ccc(Cl)c(Cl)c3)ccc2n1 (centres undefined)
> 25 µg/mL

Which MIC reading was recorded for the compound Nc1nc(N)c2cc([S+]([O-])c3ccccc3)ccc2n1 (centres undefined) ?
< 0.25 µg/mL

====

- Test system: Staphylococcus aureus
- experiment-notes: Antibacterial activity against Staphylococcus aureus UC-76 assessed as growth inhibition
- Type: functional
assay-endpoint: MIC

Report MIC for Nc1nc(N)c2c(Cl)c([S+]([O-])c3ccccc3Cl)ccc2n1 (stereo not drawn) please.
2 µg/mL

Consider the compound `Nc1nc(N)c2c(Cl)c(S(=O)(=O)c3ccccc3)ccc2n1` and give its measured MIC.
2 µg/mL

So what's the measured MIC for this one? Nc1nc(N)c2cc([S+]([O-])c3ccc(Br)cc3)ccc2n1 (stereo not drawn)
< 0.25 µg/mL

Give the measured MIC of Nc1nc(N)c2c(Cl)c([S+]([O-])c3ccc4ccccc4c3)ccc2n1 (stereo not drawn) .
> 25 µg/mL

MIC for Nc1nc(N)c2cc([S+]([O-])c3cccc(C(F)(F)F)c3)ccc2n1 (stereo not drawn) ?
< 0.25 µg/mL

Need MIC of `Nc1nc(N)c2cc(S(=O)(=O)c3cccc(-c4ccccc4)c3)ccc2n1` , thanks.
1 µg/mL

May I ask what MIC has been recorded for Nc1nc(N)c2cc([S+]([O-])c3ccc(Cl)cc3)ccc2n1 (stereo not drawn) ?
< 0.25 µg/mL

Name the reported MIC value associated with the compound `Nc1nc(N)c2cc(S(=O)(=O)c3ccc4ccccc4c3)ccc2n1`
25 µg/mL

State the recorded MIC for this entry: Nc1nc(N)c2cc([S+]([O-])c3ccc4ccccc4c3)ccc2n1 (stereo not drawn)
< 0.25 µg/mL

Looking for the measured MIC of `Nc1nc(N)c2cc(S(=O)(=O)c3ccccc3-c3ccccc3)ccc2n1` , can you help?
> 25 µg/mL

What measured MIC goes with `COc1cc(Cc2cnc(N)nc2N)cc(OC)c1OC` ?
< 0.25 µg/mL

Endpoint output: MIC of `Nc1nc(N)c2c(Cl)c(S(=O)(=O)c3ccc(F)cc3)ccc2n1` . Value?
2 µg/mL

What does the data say about its MIC? Entry: `Nc1nc(N)c2c(Cl)c(S(=O)(=O)c3ccc4ccccc4c3)ccc2n1`
> 25 µg/mL
